# Tested on: A1235
# experiment.summary: Cytotoxicity assay (WST1)
# Assay type: cell-based
# assay.setup: Glioblastoma
endpoint.label: IC50 (µM)

> print(dat)
                                   compound  study.system  endpoint.label  measure.unit  data.value
1  N.N.[Cl][Pt][Cl] [Cisplatin, (SP-4-2)-diamminedichloridoplatinum(II)]         A1235            IC50            µM        55.8
